All values here come from paper PMC1198225.

# target-or-system: recombinant PKD (Homo sapiens, UniProt Q15139)
# Construct: gene PRKD1; commercial recombinant kinase (Upstate)
# Sequence (Q15139 1-912): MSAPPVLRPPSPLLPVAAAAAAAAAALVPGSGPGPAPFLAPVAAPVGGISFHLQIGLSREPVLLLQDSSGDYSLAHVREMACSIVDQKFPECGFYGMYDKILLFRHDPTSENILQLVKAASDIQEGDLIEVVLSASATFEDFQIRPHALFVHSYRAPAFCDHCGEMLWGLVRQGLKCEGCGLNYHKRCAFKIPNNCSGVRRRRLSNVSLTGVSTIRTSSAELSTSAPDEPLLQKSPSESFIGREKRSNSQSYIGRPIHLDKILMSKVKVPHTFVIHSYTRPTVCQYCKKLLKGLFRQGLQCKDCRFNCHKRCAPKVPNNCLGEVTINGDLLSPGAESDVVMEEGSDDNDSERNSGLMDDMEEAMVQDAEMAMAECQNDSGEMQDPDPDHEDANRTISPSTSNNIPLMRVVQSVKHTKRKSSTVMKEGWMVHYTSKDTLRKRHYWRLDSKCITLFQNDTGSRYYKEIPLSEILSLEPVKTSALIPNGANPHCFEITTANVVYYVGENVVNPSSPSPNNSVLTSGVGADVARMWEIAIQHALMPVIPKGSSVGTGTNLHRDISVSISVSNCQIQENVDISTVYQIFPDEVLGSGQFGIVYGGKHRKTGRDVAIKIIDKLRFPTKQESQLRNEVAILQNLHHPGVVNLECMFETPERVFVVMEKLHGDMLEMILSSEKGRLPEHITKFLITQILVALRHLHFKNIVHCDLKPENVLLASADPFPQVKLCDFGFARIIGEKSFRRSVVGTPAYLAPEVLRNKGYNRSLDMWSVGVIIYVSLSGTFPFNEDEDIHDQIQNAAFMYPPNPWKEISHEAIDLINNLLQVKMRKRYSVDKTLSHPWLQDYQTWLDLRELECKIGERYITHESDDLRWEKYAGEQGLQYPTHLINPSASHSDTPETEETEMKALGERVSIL
# experiment: [γ-32P]ATP phosphorylation of c-Jun, SDS-PAGE autoradiography, densitometry
# Format: biochemical
# settings: read-out: IC50 PKD
Kindly state pIC50 for each of the entries shown.
Value format note: pIC50 is -log10 of concentration (mol/L); just state the number.

Provide one value: measured pIC50 of O=C(NN=Cc1cc(Cl)cc(Cl)c1O)c1ccccn1 3.93

Provide one value: measured pIC50 of Oc1cc(O)cc(/C=C/c2ccc(O)c(O)c2)c1 6.30
